# METHOD_DESCRIPTION: melting temperature; fluorescence melt of hairpins on a sequencing array, two-state fit, raised by 9.35 °C to match UV melts
# STATED_CONDITIONS: sodium 0.088 M
PARAMETER: Tm (°C)
Answer format: numeric, °C implied, no suffix.

Task: Entry GCCCGCCGAAAGGCCGGC (((.(((....))).))) : reported Tm = ?
Result: 64.8

Task: Entry GATCTGACATCAGATC ((((((....)))))) : reported Tm = ?
Result: 48.3

Task: Entry GTGAGTCGAAAGACGCAC (((.(((....))).))) : reported Tm = ?
Result: 60

Task: Entry GACTCTCCGAAAGGAGTC (((..(((....)))))) : reported Tm = ?
Result: 35.3

Task: Entry GCGGCTCACCGC ((((....)))) : reported Tm = ?
Result: 63

Task: Entry GCCTCGCGAAAGCTATGC ((.(.((....)).).)) : reported Tm = ?
Result: 15.9

Task: Entry GATCCATAACTGGATC ((((((....)))))) : reported Tm = ?
Result: 48.1

Task: Entry GATCTCGCTGGAGATC ((((((....)))))) : reported Tm = ?
Result: 54.3

Task: Entry GGTTGCGAAAGCAATACC ((((((....)))..))) : reported Tm = ?
Result: 42.9

Task: Entry GTGGCATCGAAAGATCAC (((..(((....)))))) : reported Tm = ?
Result: 34.2

Task: Entry GATCATGATAATGATC ((((((....)))))) : reported Tm = ?
Result: 55.4

Task: Entry GATCCTTTGAAGGATC ((((((....)))))) : reported Tm = ?
Result: 52.4

Task: Entry GGACATGGAAACATGTCC (((((((....))))))) : reported Tm = ?
Result: 64.7

Task: Entry GCAAGGCGAAAGCGCTGC (((..((....))..))) : reported Tm = ?
Result: 50.2

Task: Entry GACTGAGAAATCAGTC ((((((....)))))) : reported Tm = ?
Result: 53.1

Task: Entry GGATCTGGAAACAGATTC (.(((((....))))).) : reported Tm = ?
Result: 46.2

Task: Entry GACCGCGGAAACACGGCC (.(((.(....).))).) : reported Tm = ?
Result: 37

Task: Entry AACAGGAAACTGTT (((((....))))) : reported Tm = ?
Result: 40.5

Task: Entry GGCCTCGGAAACGAAGCC (((.(((....))).))) : reported Tm = ?
Result: 47.8

Task: Entry GTAGGGGGAAACTCCTAC (((((.(....).))))) : reported Tm = ?
Result: 47.2

Task: Entry GTCTCCGAAAGGAGAGAC ((((((....)))..))) : reported Tm = ?
Result: 48

Task: Entry GGACACCGAAAGGTTTCC (((.(((....))).))) : reported Tm = ?
Result: 48.2

Task: Entry GATATGGAAACATATC ((((((....)))))) : reported Tm = ?
Result: 46.1

Task: Entry GATCTGCGCCAGATC ((((((...)))))) : reported Tm = ?
Result: 50.8

Task: Entry GTGAATGGAAACATTCGC (.(((((....))))).) : reported Tm = ?
Result: 49.9

Task: Entry GAGGCGGGAAACCACCTC ((((.((....)).)))) : reported Tm = ?
Result: 49.1

Task: Entry GCGGTACCGAAAGGTCGC (((..(((....)))))) : reported Tm = ?
Result: 55.4

Task: Entry GCTATGCGAAAGCACGGC ((..(((....)))..)) : reported Tm = ?
Result: 41.4

Task: Entry GGTGACGAAAGTCGGACC ((((((....)))..))) : reported Tm = ?
Result: 42.1

----------
# METHOD_DESCRIPTION: folding enthalpy; higher = less favourable; fluorescence melt of hairpins on a sequencing array, two-state fit
# STATED_CONDITIONS: sodium 0.088 M
Please respond with reported folding enthalpy for every item in the list.
Answer format: numeric, kcal/mol implied, no suffix.

Task: Entry GATCAATAGGTTGATC ((((((....)))))) : reported folding enthalpy = ?
Result: -34.3

Task: Entry GATCGTCGAACGATC ((((((...)))))) : reported folding enthalpy = ?
Result: -33.9

Task: Entry GAAAGCGAAAGCTATTTC ((((((....)))..))) : reported folding enthalpy = ?
Result: -11.8

Task: Entry GGTAACGAAAGTTGCACC ((((((....)))..))) : reported folding enthalpy = ?
Result: -14.1

Task: Entry GCCGCAGGAAACTGCGAC (.(((((....))))).) : reported folding enthalpy = ?
Result: -13.1

Task: Entry GTTGAGCGAAAGCTAAC (((.(((....)))))) : reported folding enthalpy = ?
Result: -15.2

Task: Entry GCGGGCCTCCGC ((((....)))) : reported folding enthalpy = ?
Result: -22.5

----------
# METHOD_DESCRIPTION: folding enthalpy; higher = less favourable; fluorescence melt of hairpins on a sequencing array, two-state fit
# STATED_CONDITIONS: sodium 0.088 M
PARAMETER: folding enthalpy (kcal/mol)
Answer format: numeric, kcal/mol implied, no suffix.

Task: Entry GCATGGCGAAAGCCCAGC ((..(((....)))..)) : reported folding enthalpy = ?
Result: -12

Task: Entry GGCTACCGAAAGGTGGCC (((.(((....))).))) : reported folding enthalpy = ?
Result: -35.5

Task: Entry GACGGCGGAAACGCCATC ((.((((....)))).)) : reported folding enthalpy = ?
Result: -13.2

----------
Please respond with reported folding enthalpy for every item in the list.
# METHOD_DESCRIPTION: folding enthalpy; higher = less favourable; fluorescence melt of hairpins on a sequencing array, two-state fit
# STATED_CONDITIONS: sodium 0.088 M
Answer format: numeric, kcal/mol implied, no suffix.

Task: Entry GATCTCTAGGAGATC ((((((...)))))) : reported folding enthalpy = ?
Result: -39.1

Task: Entry GATCCTCCCTAGGATC ((((((....)))))) : reported folding enthalpy = ?
Result: -39.7

Task: Entry GATCATTTCCATGATC ((((((....)))))) : reported folding enthalpy = ?
Result: -40.5

Task: Entry ACATGGAAACATGT (((((....))))) : reported folding enthalpy = ?
Result: -19.7

Task: Entry GCATAGGGAAACTTATGC (((((.(....).))))) : reported folding enthalpy = ?
Result: -29.2

Task: Entry GATGACCGAAAGGTGATC (((.(((....))).))) : reported folding enthalpy = ?
Result: -26.9

Task: Entry GTCATTCCGAAAGGAGAC (((..(((....)))))) : reported folding enthalpy = ?
Result: -10.2

Task: Entry GTATTCGAAAGAATTTAC ((((((....)))..))) : reported folding enthalpy = ?
Result: -12.2

----------
# METHOD_DESCRIPTION: melting temperature; fluorescence melt of hairpins on a sequencing array, two-state fit, raised by 9.35 °C to match UV melts
# STATED_CONDITIONS: sodium 0.088 M
Kind request: treat 50 °C as inclusive, so Tm at 50 °C or higher is met, anything lower is not met.

Task: Hi team, for GACACACCGAAAGGTGTC (((..(((....)))))) , is the recorded Tm at or above 50 °C?
Result: not met

Task: Hi team, for GAGCGAGGAAACTTGCTC ((((.((....)).)))) , is the recorded Tm at or above 50 °C?
Result: met

Task: Hi team, for GCATCGCGAAAGCCATGC ((((.((....)).)))) , is the recorded Tm at or above 50 °C?
Result: met

Task: Hi team, for GATCTGCTAGCAGATC ((((((....)))))) , is the recorded Tm at or above 50 °C?
Result: met

Task: Hi team, for CGTACCCGGAAACGGACG (((..(((....)))))) , is the recorded Tm at or above 50 °C?
Result: not met

Task: Hi team, for GGGAATCGAAAGATGCCC (((.(((....))).))) , is the recorded Tm at or above 50 °C?
Result: met

Task: Hi team, for GATCGTAGCAACGATC ((((((....)))))) , is the recorded Tm at or above 50 °C?
Result: met

Task: Hi team, for GCACCCGAAAGGGGTTGC ((((((....)))..))) , is the recorded Tm at or above 50 °C?
Result: met

Task: Hi team, for GCGGAAATCCGC ((((....)))) , is the recorded Tm at or above 50 °C?
Result: met

Task: Hi team, for GACGCGGGAAACCACGCC (.((.((....)).)).) , is the recorded Tm at or above 50 °C?
Result: not met

Task: Hi team, for GATGTTGCGAAAGCAATC (((..(((....)))))) , is the recorded Tm at or above 50 °C?
Result: not met

Task: Hi team, for GCTGTTCGAAAGAATAGC (((.(((....))).))) , is the recorded Tm at or above 50 °C?
Result: met

Task: Hi team, for GCGGTCTCGAAAGAGCGC (((..(((....)))))) , is the recorded Tm at or above 50 °C?
Result: met

Task: Hi team, for GATCAACCCCTTGATC ((((((....)))))) , is the recorded Tm at or above 50 °C?
Result: not met

Task: Hi team, for GGGGGTGGAAACACCCTC (.(((((....))))).) , is the recorded Tm at or above 50 °C?
Result: met

Task: Hi team, for GATCTCGGACGAGATC ((((((....)))))) , is the recorded Tm at or above 50 °C?
Result: met

Task: Hi team, for GCGCGCGAAAGCGCCCGC ((((((....)))..))) , is the recorded Tm at or above 50 °C?
Result: not met

Task: Hi team, for GATCCGACGCGGATC ((((((...)))))) , is the recorded Tm at or above 50 °C?
Result: met

Task: Hi team, for GGTTTTGCGAAAGCAACC (((..(((....)))))) , is the recorded Tm at or above 50 °C?
Result: not met

Task: Hi team, for GGTCGCCGAAAGGCTACC (((.(((....))).))) , is the recorded Tm at or above 50 °C?
Result: met

Task: Hi team, for GATCTCATGAGAGATC ((((((....)))))) , is the recorded Tm at or above 50 °C?
Result: met

Task: Hi team, for GTTCCCCGAAAGGGTAAC (((.(((....))).))) , is the recorded Tm at or above 50 °C?
Result: not met

Task: Hi team, for GGCGGAGGAAACTCTGCC (((.(((....))).))) , is the recorded Tm at or above 50 °C?
Result: met

Task: Hi team, for GCCCGCCGAAAGGCTGGC (((.(((....))).))) , is the recorded Tm at or above 50 °C?
Result: met

Task: Hi team, for GTTGTAACGAAAGTTAAC (((..(((....)))))) , is the recorded Tm at or above 50 °C?
Result: not met

Task: Hi team, for GGAATGTCGAAAGACTCC (((..(((....)))))) , is the recorded Tm at or above 50 °C?
Result: not met
